System: PPARg:RXRa (NR concentration 180 nM, RXRa partner concentration 90 nM)
experiment.summary: PBM binding z-score (relative to random genomic background probes); higher = stronger binding; sequences stand for … in GC…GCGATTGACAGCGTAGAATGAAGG
recorded.endpoint: PBM binding z-score

# item.sequence, assay.target, assay.result
data = [
    ("TCTTGTAGATCAAACGTTAAGAAAGCCGAAGCCT", "PPARg:RXRa (NR concentration 180 nM, RXRa partner concentration 90 nM)", 0.748),
    ("CCGACTGGGGCAAAGCTTACCATACTCAGTACGA", "PPARg:RXRa (NR concentration 180 nM, RXRa partner concentration 90 nM)", 1.53),
    ("GGAAAGAGGGCATTCGAGTTGATAGCATGGCGAT", "PPARg:RXRa (NR concentration 180 nM, RXRa partner concentration 90 nM)", 0.905),
    ("CCTACCGGGCCACGAAAGGTCATTGATTCAGTGA", "PPARg:RXRa (NR concentration 180 nM, RXRa partner concentration 90 nM)", 1.96),
    ("TCTTGTAGATCCATAGAGGTTAAGAAAGTGCGCT", "PPARg:RXRa (NR concentration 180 nM, RXRa partner concentration 90 nM)", -0.272),
    ("CAAACTCGGTCAAAGGTCAAAGTCGAGCCAACCA", "PPARg:RXRa (NR concentration 180 nM, RXRa partner concentration 90 nM)", 12.9),
    ("CCTGTTAGGTCATGGTCAGCTAATCTACAGTATG", "PPARg:RXRa (NR concentration 180 nM, RXRa partner concentration 90 nM)", 1.92),
    ("ATATCTAGGTTACATCCGGGTCATTCAGGCTATG", "PPARg:RXRa (NR concentration 180 nM, RXRa partner concentration 90 nM)", 6),
    ("ACTAGTTCGTCAGCTGAGGTCACACACAATTCGG", "PPARg:RXRa (NR concentration 180 nM, RXRa partner concentration 90 nM)", 1.75),
    ("CCGACTGGGGCAAATGTTACCATACTCAGTACGA", "PPARg:RXRa (NR concentration 180 nM, RXRa partner concentration 90 nM)", 4.31),
    ("CGTCCAAGGTCAGCAGGTCAGTAAAAGCGACGTG", "PPARg:RXRa (NR concentration 180 nM, RXRa partner concentration 90 nM)", 3.97),
    ("ACTATTAGATGACTTAGGGCAACCGATACGACGC", "PPARg:RXRa (NR concentration 180 nM, RXRa partner concentration 90 nM)", 1.25),
]

* * *

System: RXRa DBDmut IVT, anti-RXR (DBD mutation: RXRa K156A/R161A, NR concentration 90 nM)
experiment.summary: PBM binding z-score (relative to random genomic background probes); higher = stronger binding; sequences stand for … in GC…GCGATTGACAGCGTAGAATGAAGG
Recorded PBM binding z-score by entry

# item.sequence, PBM binding z-score
records = [
    ("GCTCCGAGGACAAGGTCAGAGCTTTGTCCGTAGA", 1.05),
    ("CCTTACGGGTCACTCGAGGTTATAGCATCGGAGT", 1.69),
    ("CGAACTAGGTCAGAACAGCACAGTGAAGGATGAT", 0.779),
    ("ATATGTAGGTTCGCTGGGGTCATTCAGACTAGGC", 3.6),
    ("CGAACTAGGTCAAGGACAATGAATCTCCGCACGC", 1.52),
    ("TCTCGGAGGACACGAAAGGACAGAGCTCGACATC", 0.518),
    ("GATACAGGGTCAAGGCCAGAGCACGCGTATTGAT", 2.27),
    ("TATTGTAGATCAATAGAGGTTAAGAAAGTGCGCT", -0.302),
    ("CCTTACGGGTCACTGACAGATTATAGCATTTGGA", 2.1),
    ("ATCTCTAGGTAAAAGCTCAGTGAATCCCGAGGAT", -0.625),
    ("GCTGCTAGGTCAACTGTTGGTCAGCTAAAGCTCG", 1.66),
    ("CCTCGGAGGACAGAAGGTCGGAGCTGTCCGCTTT", -0.0663),
    ("AGAATAAGGTTATACGTAGATCAGGGAAGAAAGT", 1.2),
    ("TCATATAGGTAAATGCTAGGTTAAAGTCCGATCT", 1.74),
    ("TGAATGAGGCTATAAGATCAGGGAACGTTGCAAA", -1.09),
    ("TGAATGATGTTATAAGATCAGGGAACGTTGCAAA", -1.01),
    ("TCATATAGGTAAACAGGTGAAAATCCGTAAGTTA", 1.57),
    ("GCTATTTGGTCAGTAAAAGGTCACACACCGGTCG", 0.964),
    ("TCTTGTAGATCAATGGAGGTTAAGAAAGTGCGCT", 0.79),
    ("TCTGCTAGTTCAGTTGGTCAGCTAACGAGCTGCC", 0.659),
    ("ACTATTAGTTGAGACGAGGGCAAGCGATAGGTTG", 0.63),
    ("ACTATTAGTTGAGACGAGGGCAACCGGTAGGTTG", 0.457),
    ("CGTCCAAGGACATAGGAGGTCAGTGAAGACAGAT", 0.749),
    ("CGTCCCAGGTCAAGGTCAGTGAAAGAGACTCGAA", 2.55),
    ("ATCTCTAGGTAAGACTCAGTTCAGTGAGGAACGC", 0.293),
    ("CTCGAAAGGTCGTGCTCAGGTGCGTATACCAAAC", 2.27),
]
